FYI, the data here is from patent US20070072177A1.

Molecular target: T1, glycoprotein of rabies virus strain CVS-11 (rabies virus strain CVS-11, UniProt O92284 20-524)
T1 sequence: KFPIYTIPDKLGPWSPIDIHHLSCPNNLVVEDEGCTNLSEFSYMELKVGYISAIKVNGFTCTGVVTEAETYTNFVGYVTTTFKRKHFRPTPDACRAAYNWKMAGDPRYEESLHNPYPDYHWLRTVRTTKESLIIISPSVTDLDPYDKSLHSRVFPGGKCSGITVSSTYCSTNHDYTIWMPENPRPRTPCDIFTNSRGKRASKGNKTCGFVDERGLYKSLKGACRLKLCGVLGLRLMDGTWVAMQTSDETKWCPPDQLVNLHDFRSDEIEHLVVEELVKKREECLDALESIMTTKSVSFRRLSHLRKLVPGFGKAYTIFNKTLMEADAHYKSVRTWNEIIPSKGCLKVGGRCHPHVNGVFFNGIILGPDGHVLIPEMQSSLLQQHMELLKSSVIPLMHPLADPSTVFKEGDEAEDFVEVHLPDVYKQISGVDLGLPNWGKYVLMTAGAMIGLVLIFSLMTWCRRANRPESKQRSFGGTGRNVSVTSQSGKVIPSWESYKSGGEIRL
Test: cell-based or functional assay
Endpoint Label: Potency (IU/ml)
Answers are plain numbers, in IU/ml.

Some solved cases for reference:
{"columns": ["Binder", "Potency (IU/ml)"],
 "data": [
  ["SC04-018 (scFv) scFv: AMAEVQLVESGPGLVRPSGTLSLTCAVSGGSISSSNWWSWVRQPPGKGLEWIGEIYHSGSTNYNPSLKSRVTISVDKSKNQFSLKLSSVTAADTAVYYCARVSVTTGAFNIWGQGTMVTVSSGTGGSGGTGSGTGGSTQPVLTQPLSASGTPGQRVTISCSGDTSNIGSNTVHWYQRLPGTAPKLLIHNNNQRPSGVPDRFSGAKSGTSASLAISGLQSEDEADYFCAAWDDNLNGYVFGTGTKVTVLGAAA", 0.1],
  ["SC04-098 (scFv) scFv: AMAEVQLVQSGGGAVQPGRSLRLSCAASGFTFSSYGMHWVRQAPGKGLEWVAVILYDGSDKFYADSVKGRFTISRDNSKNTLYLQMNSLRAEDTAVYYCAKVAVAGTHFDYWGQGTLVTVSSGTGGSGGTGSGTGGSTDIQMTQSPSSLSASVGDRVTITCRASQGIRNDLGWYQQKPGKAPKLLIYAASSLQSGVPSRFSGSGSGTDFTLTISSLQPEDFATYYCQQLNSYPPTFGGGTKVEIKRAAA", 9]
]}

Turning now to a further binder:
Name the recorded Potency (IU/ml) of the item SC04-104 (scFv) scFv: AMAQVQLQESGGGVVQPGRSLRLSCAASGFTFSSYGMHWVRQAPGKGLEWVATISYDGNVKDYADSVKGRFTISRDNSKNTLYLQMNSLRTEDTAVYYCAKIVVVTALDAFDIWGQGTMVTVSSGTGGSGGTGSGTGGSTDIQLTQSPSTLSASVGDRVTITCRASQILGHWLPLSWYQQKPGKAPKLLISKASSLESGVPPRFSGSGSGSDFTLTISSLQPDDFATYYCLQYHEYPLTFGGGTKLEIKRAAA in your answer.
1
